// data source = patent US12527775B2

- test-system: human recombinant 5-HT2C receptor (Homo sapiens (Human), UniProt P28335)
- Sequence (P28335 whole entry, looked up): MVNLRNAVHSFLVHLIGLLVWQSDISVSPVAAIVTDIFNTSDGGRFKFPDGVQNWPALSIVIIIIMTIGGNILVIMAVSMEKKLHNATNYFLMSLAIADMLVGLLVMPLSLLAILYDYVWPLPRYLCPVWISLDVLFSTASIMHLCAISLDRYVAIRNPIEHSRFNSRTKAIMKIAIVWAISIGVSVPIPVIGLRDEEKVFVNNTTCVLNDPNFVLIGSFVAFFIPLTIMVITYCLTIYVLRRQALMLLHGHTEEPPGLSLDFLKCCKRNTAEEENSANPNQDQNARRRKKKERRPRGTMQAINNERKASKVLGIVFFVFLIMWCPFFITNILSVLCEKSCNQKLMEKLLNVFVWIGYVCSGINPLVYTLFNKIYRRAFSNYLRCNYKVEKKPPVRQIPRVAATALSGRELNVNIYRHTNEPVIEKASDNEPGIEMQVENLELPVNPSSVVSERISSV
- measurement-notes: biochemical
- Type: binding
- assay-context: human serotonin 5-HT2C receptor binding, [3H]-Mesulergine; read-out: h-5-HT2C Ki
measured-metric: Ki

Solved entries (count: 6):
CC(C)COc1ccc(CNC(=O)N(Cc2ncccc2F)[C@@H]2CCNC[C@@H]2F)cc1 (racemic) [Compound I-073] = > 100 nM
Cc1ccc(CNC(=O)N(Cc2ccc(F)cn2)[C@H]2CCN(C)CC23CC3)cc1 [Compound I-120] = < 10 nM
CC(C)COc1ccc(CNC(=O)N(Cc2ncccc2F)[C@@H]2CCN(C)C[C@@H]2F)cc1 (racemic) [Compound I-069] = > 100 nM
Cc1cc(CN(C(=O)NCc2ccc(OCC(C)C)cc2)C2CCN(C)CC2)nn1C [Compound I-096] = 10 to 100 nM
CCCOc1ccc(CNC(=O)N(Cc2ccc(F)cn2)[C@H]2CCNC[C@H]2F)cc1 [Compound I-119] = < 10 nM
CC(C)COc1ccc(CNC(=O)N(Cc2ccc(F)c3cccnc23)C2CCN(C)CC2)cc1 [Compound I-070] = 10 to 100 nM

From here, focus on the item given below.
QUERY: human recombinant 5-HT2C receptor (Homo sapiens (Human), UniProt P28335) / Ki / CC(C)COc1ccc(CNC(=O)N(Cc2ccn(C)c2)[C@@H]2CCNC[C@@H]2F)cc1 (racemic) [Compound I-093] : value?
RESULT: < 10 nM

###

- test-system: human recombinant 5-HT2C receptor (Homo sapiens (Human))
- measurement-notes: biochemical
- Type: binding
pKi: −log10 of the molar value.
measured-metric: pKi

QUERY: Give pKi (human recombinant 5-HT2C receptor (Homo sapiens (Human))) of the following compound: COc1ccc(CNC(=O)N(Cc2ccc(F)cn2)C2CCN(C)CC23CC3)cc1 (racemic) [Compound I-099]
RESULT: > 8.00

###

- test-system: human recombinant 5-HT2C receptor (Homo sapiens (Human))
- measurement-notes: biochemical
- Type: binding
- assay-context: [3H]-Mesulergine 1 nmol/L, Jump-In HEK cell membrane; read-out: human serotonin 5-HT2C receptor binding activity, Ki
measured-metric: pKi
Give bare numbers, as −log10 of the molar value.

CC(C)COc1ccc(CNC(=O)N(Cc2ccc(F)cn2)[C@H]2CCN(C)C[C@@H]2O)cc1 (racemic) = 6.87
CC(C)COc1ccc(CNC(=O)N(Cc2ccc(F)cn2)[C@@H]2CCN(C)C[C@@H]2F)cc1 = 7.02
CC(C)COc1ccc(CNC(=O)N(Cc2ccn(C)c2)[C@H]2CCNC[C@H]2F)cc1 = 8.65

Please turn your attention to the following entry.
QUERY: Fill in: pKi of `CC(C)COc1ccc(CNC(=O)N(Cc2cc3ccccc3cn2)C2CCN(C)CC2)cc1` is ___
RESULT: 7.55

###

- test-system: human recombinant 5-HT2C receptor (Homo sapiens (Human), UniProt P28335)
- measurement-notes: biochemical
- Type: binding
- assay-context: [3H]-Mesulergine 1 nmol/L, Jump-In HEK cell membrane; read-out: human serotonin 5-HT2C receptor binding activity, Ki
pKi: −log10 of the molar value.
Bucketed by reported pKi, buckets being label 0 (below 7), label 1 (7 to below 8), label 2 (8 or more)

Use these answered entries as a reference point.
CN1CCC(N(Cc2ccc(F)cn2)C(=O)NCc2ccc(Br)cc2)CC1 = label 1
CN1CCC(N(Cc2ccc(F)cn2)C(=O)NCc2ccccc2O)CC1 = label 0

QUERY: State the band of `COCc1ccc(CNC(=O)N(Cc2ccc(C)cn2)C2CCN(C)CC2)cc1`
RESULT: label 0

QUERY: What do we get for `CC(C)COc1ccc(CNC(=O)N(Cc2cc(CF)n(C)n2)[C@H]2CCN(C)C[C@H]2F)cc1` ?
RESULT: label 2
